Source: patent US20220332800A1

target: T1, ZIKV-VLP (Native Antigen Inc.) (Zika virus); assay: BLI binning on ZIKV-VLP; 1st mAb: 289-3
T1 construct: also called Zika VLP; ZVLP
# response of 2nd mAb per entry
Lab note: jot the number down without any unit.

1. anti-ZIKV antibody 270-12 (antibody, V domains shown, also called clone 270-12) VH: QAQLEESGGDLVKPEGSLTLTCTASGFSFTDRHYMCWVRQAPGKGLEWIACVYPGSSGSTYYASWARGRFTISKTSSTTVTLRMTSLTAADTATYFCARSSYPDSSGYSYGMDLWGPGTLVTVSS VL: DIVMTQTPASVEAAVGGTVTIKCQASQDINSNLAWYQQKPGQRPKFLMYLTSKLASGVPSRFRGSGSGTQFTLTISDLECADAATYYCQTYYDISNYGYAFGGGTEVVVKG: 0.02

// next entry
Given anti-ZIKV antibody 289-3 (antibody, V domains shown, also called clone 289-3; subclone 289-3) VH: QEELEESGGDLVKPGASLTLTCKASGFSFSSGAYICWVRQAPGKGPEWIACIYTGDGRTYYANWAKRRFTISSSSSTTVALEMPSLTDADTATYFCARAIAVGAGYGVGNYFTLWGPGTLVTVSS VL: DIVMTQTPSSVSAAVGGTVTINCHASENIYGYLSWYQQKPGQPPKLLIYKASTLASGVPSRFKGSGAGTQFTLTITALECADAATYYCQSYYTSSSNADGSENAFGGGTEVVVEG , respond with its response of 2nd mAb.
0.02
